target: EGFR (Homo sapiens); construct: Add 7 ug A431 cell lysate per well (EGFR source); endogenous in cells; host or cells: A431; experiment: EGFR ELISA assay (in vitro kinase activity, EGFR captured from A431 cell lysate); format: biochemical; set-up: concentration or dose not given beside the values
Sequence (P00533 25-1210): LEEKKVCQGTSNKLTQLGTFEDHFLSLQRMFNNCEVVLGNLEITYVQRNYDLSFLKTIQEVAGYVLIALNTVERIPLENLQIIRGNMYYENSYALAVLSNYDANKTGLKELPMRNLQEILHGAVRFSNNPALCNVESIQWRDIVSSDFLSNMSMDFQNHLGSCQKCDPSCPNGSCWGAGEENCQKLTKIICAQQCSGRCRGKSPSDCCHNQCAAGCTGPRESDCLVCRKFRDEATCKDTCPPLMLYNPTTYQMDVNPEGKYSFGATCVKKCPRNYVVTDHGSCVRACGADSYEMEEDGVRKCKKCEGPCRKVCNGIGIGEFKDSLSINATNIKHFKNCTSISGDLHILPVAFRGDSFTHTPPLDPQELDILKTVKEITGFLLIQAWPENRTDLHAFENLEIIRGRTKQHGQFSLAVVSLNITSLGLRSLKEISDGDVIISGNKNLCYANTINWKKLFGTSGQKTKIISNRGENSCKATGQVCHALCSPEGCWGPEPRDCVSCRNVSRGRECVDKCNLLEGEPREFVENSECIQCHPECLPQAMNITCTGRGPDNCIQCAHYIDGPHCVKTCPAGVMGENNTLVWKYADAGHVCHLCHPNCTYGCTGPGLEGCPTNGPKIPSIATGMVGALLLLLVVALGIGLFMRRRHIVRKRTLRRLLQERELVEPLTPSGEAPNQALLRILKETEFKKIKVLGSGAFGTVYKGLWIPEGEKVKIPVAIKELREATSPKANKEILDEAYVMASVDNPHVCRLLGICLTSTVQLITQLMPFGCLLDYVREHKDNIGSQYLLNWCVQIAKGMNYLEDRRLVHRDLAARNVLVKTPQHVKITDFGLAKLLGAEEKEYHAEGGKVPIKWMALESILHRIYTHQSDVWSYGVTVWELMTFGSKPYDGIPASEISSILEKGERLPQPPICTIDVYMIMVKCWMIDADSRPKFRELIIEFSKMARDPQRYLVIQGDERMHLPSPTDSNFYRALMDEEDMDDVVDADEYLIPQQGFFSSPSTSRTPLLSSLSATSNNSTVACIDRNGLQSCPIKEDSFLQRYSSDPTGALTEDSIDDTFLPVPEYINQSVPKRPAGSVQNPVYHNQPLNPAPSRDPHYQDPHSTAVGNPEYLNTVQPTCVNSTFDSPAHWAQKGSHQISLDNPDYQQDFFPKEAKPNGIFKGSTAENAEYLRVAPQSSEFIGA
Biochem EGFR %Inhibition listing for selected compounds.

compound: O=C1Nc2c(Br)cc(Br)cc2C1=Cc1cc([N+](=O)[O-])cc(CCl)c1O [10721/A06]
Biochem EGFR %Inhibition, %: 32.7
//
compound: O=C1Nc2ccc(S(=O)(=O)Nc3ccc(C(F)(F)F)cc3)cc2C1=Cc1c(Br)cnn1-c1ccc(Cl)cc1 [10725/E10]
Biochem EGFR %Inhibition, %: 6.1
//
compound: O=C1Nc2ccc(I)cc2C1=Cc1c(F)cccc1C(F)(F)F [10728/B09]
Biochem EGFR %Inhibition, %: 31.7
//
compound: O=C1Nc2ccc(S(=O)(=O)Nc3ccc(C(F)(F)F)cc3)cc2C1=Cc1cc2c3c(c1O)CCCN3CCC2 [10724/E05]
Biochem EGFR %Inhibition, %: 0.5
